Recorded % Retained, one value per entry.
assay: Plasma stability, mini pig plasma; format: in vitro ADME, Mini Pigs; details: 37° C., 30 min
Value expressed in %; do not type the unit.

Some solved cases for reference:
compound	quantitative-result
C[C@@H]1CCN(C(=O)CC#N)C[C@@H]1N(C)c1ncnc2c1ccn2C(=O)N(C)CCOC(=O)c1ccncc1 [Compound A15]	75.9
CC(C)C(=O)OCCN(C)C(=O)n1ccc2c(N(C)[C@H]3CN(C(=O)CC#N)CC[C@H]3C)ncnc21 [Compound A19]	46.2
CC(=O)OCCN(C)C(=O)n1ccc2c(N(C)[C@H]3CN(C(=O)CC#N)CC[C@H]3C)ncnc21 [Compound A13]	91.0

Requested read-out: % Retained. Entry: C[C@@H]1CCN(C(=O)CC#N)C[C@@H]1N(C)c1ncnc2c1ccn2C(=O)N(C)CCOC(=O)C1CCCCC1 [Compound A16]
0.1

###

assay: Plasma stability, mini pig plasma; format: in vitro ADME, Mini Pigs; conditions: 37° C., 10 min
Recorded % Retained, one value per entry.
Value expressed in %; do not type the unit.

Some solved cases for reference:
compound	readout-name	quantitative-result
COCCOCC(=O)OCCN(C)C(=O)n1ccc2c(N(C)[C@H]3CN(C(=O)CC#N)CC[C@H]3C)ncnc21 [Compound A18]	% Retained	57.3
C[C@@H]1CCN(C(=O)CC#N)C[C@@H]1N(C)c1ncnc2c1ccn2C(=O)N(C)CCOC(=O)C1CCN(C)CC1 [Compound A17]	% Retained	100.9
CC(C)C(=O)OCCN(C)C(=O)n1ccc2c(N(C)[C@H]3CN(C(=O)CC#N)CC[C@H]3C)ncnc21 [Compound A19]	% Retained	73.0

Pending compound:
Requested read-out: % Retained. Entry: C[C@@H]1CCN(C(=O)CC#N)C[C@@H]1N(C)c1ncnc2c1ccn2C(=O)N(C)CCOC(=O)C1CCCCC1 [Compound A16]
8.3

###

test: Log D measurement (n-octanol/PBS shake, LC-MS/MS); type: physicochemical; settings: pH 7.4, read-out: LogD7.4 (Oct/buff)
Given measured logD, output yes (1) if it is greater than or equal to 2 and no (0) if not.

compound	class-name
COCCOCC(=O)OCCN(C)C(=O)n1ccc2c(N(C)[C@H]3CN(C(=O)CC#N)CC[C@H]3C)ncnc21	no (0)
C[C@@H]1CCN(C(=O)CC#N)C[C@@H]1N(C)c1ncnc2c1ccn2C(=O)N(C)CCOC(=O)C1CCC(F)(F)CC1	no (0)
C[C@@H]1CCN(C(=O)CC#N)C[C@@H]1N(C)c1ncnc2c1ccn2C(=O)N(C)CCOC(=O)C1CC(F)(F)C1	no (0)
C[C@@H]1CCN(C(=O)CC#N)C[C@@H]1N(C)c1ncnc2c1ccn2C(=O)N(C)CCOC(=O)C1CCCO1 (stereo partly shown)	no (0)

Given "C[C@@H]1CCN(C(=O)CC#N)C[C@@H]1N(C)c1ncnc2c1ccn2C(=O)N(C)CCOC(=O)C1(C)CCC1" , state whether its logD is at least 2.
yes (1)

Again, but for "CCC(=O)OCCN(C)C(=O)n1ccc2c(N(C)[C@H]3CN(C(=O)CC#N)CC[C@H]3C)ncnc21"
no (0)

###

Recorded % Retained, one value per entry.
assay: Plasma stability, human plasma; assay type: in vitro ADME, Humans; details: 37° C., 10 min
Value expressed in %; do not type the unit.

molecule	% Retained (%)
CC(C)C(=O)OCCN(C)C(=O)n1ccc2c(N(C)[C@H]3CN(C(=O)CC#N)CC[C@H]3C)ncnc21 [Compound A19]	5.1
CC(=O)OCCN(C)C(=O)n1ccc2c(N(C)[C@H]3CN(C(=O)CC#N)CC[C@H]3C)ncnc21 [Compound A13]	77.1
CCCCC(=O)OCCN(C)C(=O)n1ccc2c(N(C)[C@H]3CN(C(=O)CC#N)CC[C@H]3C)ncnc21 [Compound A22]	4.5

Pending molecule:
Requested read-out: % Retained. Entry: C[C@@H]1CCN(C(=O)CC#N)C[C@@H]1N(C)c1ncnc2c1ccn2C(=O)N(C)CCOC(=O)c1ccncc1 [Compound A15]
20.6

The values you see were collected from patent US20250188088A1.
